B1: OR4K15 (parent)
chain: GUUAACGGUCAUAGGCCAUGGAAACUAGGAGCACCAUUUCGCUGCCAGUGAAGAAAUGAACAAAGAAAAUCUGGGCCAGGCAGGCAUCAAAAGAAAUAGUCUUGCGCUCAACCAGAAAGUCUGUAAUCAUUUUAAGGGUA

- Variants of: B1
- method_description: self-cleavage, relative activity (ratio to wild type); higher = more cleavage; in vitro, sequencing; the parent is a self-cleaving ribozyme
Lab note: compare self-cleavage against 1. Equal or greater, write 1.0. Smaller, write 0.0.

mutations: A36U U100C
category: 1.0

mutations: A59U A62C
category: 1.0

mutations: U38C A54U
category: 1.0

Q: Say whether A54G A91C shows self-cleavage of 1 or more.
Result: 1.0

Q: Say whether A33U A140G shows self-cleavage of 1 or more.
Result: 1.0

Q: Say whether G74U C113A shows self-cleavage of 1 or more.
Result: 0.0

Q: Say whether A63G A67U shows self-cleavage of 1 or more.
Result: 1.0

Q: Say whether G28A A67G shows self-cleavage of 1 or more.
Result: 1.0

Q: Say whether U87C U103C shows self-cleavage of 1 or more.
Result: 0.0

FYI, the data here is from the RNAGym collection of RNA variant scans (doi:10.7554/elife.90254).
